The entries below are paired with their reported CC50 at 72 h.
test method notes: Cytotoxicity against BALB/c mouse peritoneal macrophages assessed as cell viability after 72 hrs by resazurin assay
Type: cell-based, Peritoneal macrophage cell
conditions used: read-out: LD50

The examples below pair each entry with its known result.
N=C(N)c1ccc(OCCCCCOc2ccc(C(=N)N)cc2)cc1 8.5 µM
N#Cc1cc2c(cc1/C=N/NC(N)=S)OCO2 > 125 µM

Would you kindly look at the next entry?
[ask] I am curious: what CC50 at 72 h value has been reported for NC(=S)N/N=C/c1cc2c(cc1I)OCO2 ?
[reply] > 125 µM
